Values were extracted from paper PMC6027433.

So I've got a bunch of compounds here, and I need their melting point values.

query: Name the recorded melting point for `COc1ccc(-c2cc3cc(Br)cc(C(C)=O)c3[nH]2)cc1` .
result: 140 to 142 °C

query: Now give it for `CC(=O)c1cc(Br)cc2c(C(=O)C(F)(F)F)c(-c3cccc(Cl)c3)[nH]c12` too.
result: 138 to 141 °C

query: Now give it for `COc1ccc(-c2[nH]c3c(C(C)=O)cc(Br)cc3c2C(=O)C(F)(F)F)cc1` too.
result: 170 to 173 °C
